tested on: PEER cells; assay: cells; details: Homo sapiens, 72 h
Recorded pIC50 by entry
The scale used: pIC50 is minus the common logarithm of the concentration in molar units.

[[record]]
molecule = "Cc1nc(Nc2ncc(C(=O)Nc3c(C)cccc3Cl)s2)cc(N2CCN(CCO)CC2)n1 [dasatinib]"
endpoint_result = 7.41


Let us examine a further case.
Field pIC50 (system: PEER cells) for entry Cc1cn(-c2cc(NC(=O)c3ccc(C)c(Nc4nccc(-c5cccnc5)n4)c3)cc(C(F)(F)F)c2)cn1 [nilotinib] = 7.17

All figures here come from patent US20110263609A1.
